Test system: T-47D breast
PROTOCOL_TEXT: NCI tumour cell line growth inhibition, 48 h
Give TGI for every item shown.

Asked: Quick one: TGI for COC12CCCN1c1ccn(Cc3ccccc3)c(=O)c1C2=O (stereo unspecified) ?
Given back: > 100 µM

Asked: Please report the recorded TGI for "O=c1cc(NNc2cccc(F)c2)[nH]c(=O)[nH]1" .
Given back: 31.7 µM

Asked: Data request, read-out TGI, for "Cc1cc2cc3ccc(N(C)C)cc3nc2cc1N"
Given back: 3.5 µM

Asked: Request the reported TGI associated with "C=CCc1cc(-c2cc(CC=C)c(O)c(CN(CC)CC)c2)cc(CN(CC)CC)c1O"
Given back: > 100 µM

Asked: Bench note: what TGI did "Clc1ccc(-c2nnc(-c3cccc4ccccc34)o2)cc1Cl" show?
Given back: > 100 µM

Asked: Would you mind telling me what TGI value was observed for "O=c1sc2c(s1)-c1sc(=O)sc1SS2" ?
Given back: > 100 µM

---

So I've got a bunch of compounds here, and I need their TGI values.
System: MALME-3M melanoma
PROTOCOL_TEXT: NCI tumour cell line growth inhibition, 48 h
Please respond with the number in µM and leave the unit unwritten.

Asked: Look up TGI: "C=C1C(=O)O[C@H]2[C@H]3O[C@@H](C[C@@H]12)[C@@]1(C)CC[C@H](O1)[C@H](C)CCC[C@H]3C"
Given back: 3.24

Asked: Form field: reported TGI of "CCCCCc1nnc(NS(=O)(=O)c2ccc(NC(=O)OCC(C)C)cc2)s1"
Given back: 94.6

Asked: I am curious: what TGI value has been reported for COc1cc(C2SC(C)C(=O)N2c2ccc(-c3csc(NS(=O)(=O)c4ccc(Cl)c(OC)c4)n3)cc2)ccc1O (centres undefined) ?
Given back: 82.4

Asked: Bench note: what TGI did "Cc1ccc(-c2c3c(nn2-c2ccc(S(N)(=O)=O)cc2)-c2ccccc2C3)cc1" show?
Given back: 26.5

---

Test system: U251 CNS
PROTOCOL_TEXT: NCI tumour cell line growth inhibition, 48 h
Consider the following compounds; for each one, report its TGI.
Write the answer as a number in µM, unit excluded.

Asked: State the recorded TGI for this entry: "Nc1nc(N)c(C=Nc2ccc(Br)cc2)c(Nc2ccc(Br)cc2)n1"
Given back: 30.1

Asked: TGI for CSC1C(=O)Nc2ccc3ccccc3c21 (configuration not stated) ?
Given back: 33.6

Asked: Can you look up the measured TGI of "CC(=O)OC(Cc1ccc2ccccc2n1)(C(F)(F)F)C(F)(F)F" for me?
Given back: 18.2

Asked: State the recorded TGI for this entry: O=C(O)C1CCCCC1c1c2ccc(=O)c(O)c-2oc2c(O)c(O)ccc12 (configuration not stated)
Given back: 24.8

---

System: HCT-116 colon
PROTOCOL_TEXT: NCI tumour cell line growth inhibition, 48 h; in the data active = GI50 below about 0.43 µM; inactive = the rest
Respond with a class label; see active, inactive

Asked: Lab log entry: "Oc1ccc(-c2nc3ccc4[nH]ncc4c3c3c2CCCC3)c(F)c1" — outcome as called in the assay?
Given back: inactive

Asked: Tell me the assay call for "CN(Cc1cccc(F)c1)c1ccc(CO)c(Cl)c1" please.
Given back: active

Asked: Hey, what did the test say about "COc1cccc(-c2nn(-c3ccccc3)cc2-c2ccnc(NCCNC(=O)Nc3cccc(C(F)(F)F)c3)c2)c1" ?
Given back: inactive

Asked: Please share the test call associated with "O=C(CN1CCN(c2cc3c(cc2F)c(=O)c(C(=O)O)cn3C2CC2)CC1)Nc1nc(-c2ccc(Cl)cc2)cs1" .
Given back: inactive

Asked: Hello, I am checking results. What call was entered for "COc1ccc2c(C3(c4cn(C)c5cc(OC)ccc45)C(=O)Nc4ccc(Cl)cc43)cn(C)c2c1" ?
Given back: inactive

Asked: Dear colleague, could you share the recorded outcome for CC(=O)N1N=C(c2ccc(Nc3ccnc4cc(Cl)ccc34)cc2)CC1c1ccc(Cl)cc1 (stereo not given) when you have a moment?
Given back: inactive

Asked: For this compound, state the assay outcome: CCN1C(=O)CCCc2c1ccc(Nc1ncc(Cl)c(NC3[C@@H](C(N)=O)[C@@H]4C=C[C@H]3C4)n1)c2OC (stereo not given in full)
Given back: inactive

Asked: GET /call?item= "CC(=O)c1c(CN(C)c2ccccc2)n([O-])c2ccccc2[n+]1=O" returns the recorded outcome of this test.
Given back: inactive

Asked: Could you please tell me the result logged for COc1cccc(-c2ccc3c(c2)C2CCN(Cc4ccccc4)C3C2)c1 (stereo not given) in this assay?
Given back: inactive

Asked: Which outcome did this test record for the compound N#Cc1c(Br)n(C2OC(CO)C(O)C2O)c2ncnc(N)c12 (stereo not given) ?
Given back: inactive
